B1: H2-Kb / Ed21 (parent complex)
chain 1: AQSVTQPDARVTVSEGASLQLRCKYSYFGTPYLFWYVQYPRQGLQLLLKYYPGDPVVQGVNGFEAEFSKSNSSFHLRKASVHWSDWAVYFCAVSMSGGYKVVFGSGTRLLVSP
chain 2: DSGVVQSPRHIIKEKGGRSVLTCIPISGHSNVVWYQQTLGKELKFLIQHYEKVERDKGFLPSRFSVQQFDDYHSEMNMSALELEDSAMYFCASSPRQTDYTFGSGTRLLVI
chain 3: not shown
chain 4: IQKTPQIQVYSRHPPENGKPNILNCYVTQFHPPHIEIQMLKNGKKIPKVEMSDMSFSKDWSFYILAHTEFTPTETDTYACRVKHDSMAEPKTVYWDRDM
chain 5: SIINFEKL

- Variants of: B1
- Test: % of reporter cells activated (NFAT-GFP), raw; further: test concentration or dose not given here
Reported property: ratio to parent

{"Mutant label": "chain 5 I2E", "ratio to parent": 0.964}
{"Mutant label": "chain 5 I3K", "ratio to parent": 0.851}
{"Mutant label": "chain 5 I3P", "ratio to parent": 0.927}
{"Mutant label": "chain 5 L8Y", "ratio to parent": 0.976}

a. chain 5 S1D
b. chain 5 K7M
Prompt: Please indicate which has the smaller reported ratio to parent: a , or b . Mark your answer with the label of the selected entry.
Response: b
(b: 0.418, a: 0.911)

I. chain 5 E6Q
II. chain 5 I3G
Prompt: Task for the reader: decide whether I or II has the larger ratio to parent. Mark your answer with the label of the selected entry.
Response: I
(I: 0.918, II: 0.636)
